Give measured B. signalgrass plant response rating for each item. Keep answers brief.
# Test system: surinam grass
# TEST: Test B pre/postemergence surinam grass
# Assay type: in vivo, Brachiaria decumbens
# SETTINGS: Postemergence, Rate 62 g/ha; scale 0 to 10, 0 is no effect, 10 is complete control
Reply: number alone, nothing else.

Find the recorded B. signalgrass plant response rating belonging to CCc1noc(CC)c1-n1c(=O)on(C(=O)N(c2ccc(F)cc2)C(C)C)c1=O and report it.
0

Another compound to look at: CC(C)N(C(=O)n1oc(=O)n(C2CCCCC2)c1=O)c1ccc(F)cc1
0

Another compound to look at: Cc1cccc(C)c1-n1c(=O)on(C(=O)N(c2ccccc2)C(C)C)c1=O
0

Another compound to look at: Cc1ccccc1-n1c(=O)on(C(=O)N(c2ccc(C#N)cc2)C(C)C)c1=O
0

Another compound to look at: CC(C)N(C(=O)n1oc(=O)n(Cc2cccs2)c1=O)c1ccc(F)cc1
0

Another compound to look at: Cc1nn(C)c(C)c1-n1c(=O)on(C(=O)N(c2ccccc2)C(C)C)c1=O
0

Another compound to look at: Cc1nn(C)c(C)c1-n1c(=O)on(C(=O)N(c2ccc(F)cc2)C(C)C)c1=O
2

Another compound to look at: COc1ccc(-n2c(=O)on(C(=O)N(c3ccc(F)cc3)C(C)C)c2=O)c(C)c1
0

Another compound to look at: CCN(C(=O)n1oc(=O)n(-c2ccc(C)cc2C)c1=O)C1CCCCC1
0

---

Give measured B. signalgrass plant response rating for each item. Keep answers brief.
# System: surinam grass
# TEST: Test B pre/postemergence surinam grass
# Assay type: in vivo, Brachiaria decumbens
# SETTINGS: Rate 62 g/ha, Postemergence; scale 0 to 10 (0 no effect, 10 complete control)
Reply: number alone, nothing else.

Find the recorded B. signalgrass plant response rating belonging to CC(C)N(C(=O)n1oc(=O)n(CCCF)c1=O)c1ccc(F)cc1 and report it.
0

Another compound to look at: COC(CCl)n1c(=O)on(C(=O)N(c2ccc(Cl)cc2)C(C)C)c1=O (stereo not shown)
0

Another compound to look at: CC(C)N(C(=O)n1oc(=O)n(CCC[Si](C)(C)C)c1=O)c1ccc(F)cc1
0

Another compound to look at: CC(C)N(C(=O)n1oc(=O)n(C2CCCC2)c1=O)c1ccc(F)cc1F
0

Another compound to look at: CC(C)N(C(=O)n1oc(=O)n(C2CCCCO2)c1=O)c1ccc(F)cc1 (stereo not shown)
0

Another compound to look at: CC(C)C(=O)Cn1c(=O)on(C(=O)N(c2ccc(Cl)cc2)C(C)C)c1=O
0

Another compound to look at: CC(C)N(C(=O)n1oc(=O)n(C2CC3CCC2C3)c1=O)c1ccc(F)cc1F (stereo not shown)
0

---

# Tested on: morningglory
# TEST: Test B pre/postemergence morningglory
# Format: in vivo, Ipomoea hederacea
# SETTINGS: Postemergence, Rate 62 g/ha; scale 0 to 10, 0 is no effect, 10 is complete control
# Procedure: […] At the same time, these crop and weed species were also treated with postemergence applications of test chemicals formulated in the same manner. […] Treated plants and controls were maintained in a greenhouse for twelve to sixteen days, after which all species were compared to controls and visually evaluated. […]
Give measured Plant response rating, Morningglory for each item. Keep answers brief.
Reply: number alone, nothing else.

Find the recorded Plant response rating, Morningglory belonging to CC(C)N(C(=O)n1oc(=O)n(CC2=NOCCC2)c1=O)c1ccc(F)cc1 and report it.
1

Another molecule to look at: C#CCCn1c(=O)on(C(=O)N(c2ccc(F)cc2F)C(C)C)c1=O
2

Another molecule to look at: CC(C)N(C(=O)n1oc(=O)n(CCCC#N)c1=O)c1ccc(F)cc1
0

Another molecule to look at: CCOC(Cn1c(=O)on(C(=O)N(c2ccccc2)C(C)C)c1=O)OCC
1

---

# Tested on: wild oat
# TEST: Test B pre/postemergence wild oat
# Type: in vivo, Avena fatua
# SETTINGS: Rate 500 g/ha, Postemergence; scale 0 to 10, 0 no effect, 10 complete control
# Protocol: […] At the same time, these crop and weed species were also treated with postemergence applications of test chemicals formulated in the same manner. […] Treated plants and controls were maintained in a greenhouse for twelve to sixteen days, after which all species were compared to controls and visually evaluated. […]
Give measured Wild oats plant response rating for each item. Keep answers brief.
Reply: number alone, nothing else.

Lookup: Wild oats plant response rating / wild oat / CC(C)N(C(=O)n1oc(=O)n(CC(=O)OC(C)(C)C)c1=O)c1ccc(F)cc1
0

Another compound to look at: CCc1noc(CC)c1-n1c(=O)on(C(=O)N(c2ccc(F)cc2)C(C)C)c1=O
0

Another compound to look at: CCn1c(=O)on(C(=O)N(c2ccc(Cl)cc2)C(C)C)c1=O
3

Another compound to look at: CCCCCC#CCn1c(=O)on(C(=O)N(c2ccc(F)cc2)C(C)C)c1=O
0

Another compound to look at: CC(C)N(C(=O)n1oc(=O)n(CC2(C)COC2)c1=O)c1ccc(F)cc1
3

Another compound to look at: Cc1ccccc1-n1c(=O)on(C(=O)N(c2ccc(F)cc2)C(C)C2CC2)c1=O (centres unmarked)
2

Another compound to look at: Cc1ccccc1-n1c(=O)on(C(=O)N(c2ccc(N(C)C)cc2)C(C)C)c1=O
0

Another compound to look at: C=CCn1c(=O)on(C(=O)N(c2ccc(F)cc2)C(C)C(=O)OCC)c1=O (centres unmarked)
0

---

Give measured Morningglory plant response rating for each item. Keep answers brief.
# Test system: morningglory
# TEST: Test B pre/postemergence morningglory
# Format: in vivo, Ipomoea hederacea
# SETTINGS: Preemergence, Rate 500 g/ha; scale 0 to 10, 0 is no effect, 10 is complete control

Find the recorded Morningglory plant response rating belonging to CC(C)N(C(=O)n1oc(=O)n(C2CCOCC2)c1=O)c1ccccc1 and report it.
8

Another molecule to look at: CC(C)N(C(=O)n1oc(=O)n(C(C)C2CC2)c1=O)c1ccc(F)cc1 (stereo not drawn)
5

Another molecule to look at: C=CC[Si](C)(C)Cn1c(=O)on(C(=O)N(c2ccc(F)cc2)C(C)C)c1=O
6

---

Give measured Plant response rating, Cocklebur for each item. Keep answers brief.
# Test system: cocklebur
# TEST: Test B pre/postemergence cocklebur
# Assay type: in vivo, Xanthium strumarium
# SETTINGS: Rate 250 g/ha, Postemergence; scale of 0 to 10 where 0 is no effect and 10 is complete control
Reply: number alone, nothing else.

Find the recorded Plant response rating, Cocklebur belonging to CC(=O)C(C)n1c(=O)on(C(=O)N(c2ccccc2)C(C)C)c1=O (stereo not shown) [Compound 576] and report it.
0

Another compound to look at: CC(C)=CCn1c(=O)on(C(=O)N(c2ccc(Cl)cc2)C(C)C)c1=O [Compound 545]
8

Another compound to look at: CC(Cl)=CCn1c(=O)on(C(=O)N(c2ccccc2)C(C)C)c1=O [Compound 573]
2

Another compound to look at: CC(C)N(C(=O)n1oc(=O)n(C2CCCCO2)c1=O)c1ccc(F)cc1 (stereo not shown) [Compound 311]
0

---

# Tested on: Green foxtail
# TEST: Test D green foxtail
# Format: in vivo
# SETTINGS: Rate 64 g/ha, Preemergence; 0 to 100 scale, 0 no injury, 100 complete control
Give measured Green foxtail plant response rating for each item. Keep answers brief.

Lookup: Green foxtail plant response rating / Green foxtail / Cc1cccc(C)c1-n1c(=O)on(C(=O)N(c2ccccc2)C(C)C)c1=O
30

Another compound to look at: CC(C)N(C(=O)n1oc(=O)n(Cc2cccs2)c1=O)c1ccccc1
50

Another compound to look at: C=CCn1c(=O)on(C(=O)N(c2ccccc2)C(C)C)c1=O
100

Another compound to look at: CCn1c(=O)on(C(=O)N(c2ccc(Cl)cc2)C(C)C)c1=O
100

---

Give measured Rape plant response rating for each item. Keep answers brief.
# System: rape
# TEST: Test B pre/postemergence rape
# Assay type: in vivo, Brassica napus
# SETTINGS: Postemergence, Rate 62 g/ha; scale of 0 to 10, 0 is no effect, 10 is complete control

Find the recorded Rape plant response rating belonging to CCc1nc(C)c(Cn2c(=O)on(C(=O)N(c3ccc(Cl)cc3)C(C)C)c2=O)s1 and report it.
0

Another compound to look at: CCOCn1c(=O)on(C(=O)N(c2ccccc2)C(C)C)c1=O
0

Another compound to look at: C=CCCCn1c(=O)on(C(=O)N(c2ccc(F)cc2F)C(C)C)c1=O
1

Another compound to look at: CC(C)N(C(=O)n1oc(=O)n(CCCCF)c1=O)c1ccccc1
0

Another compound to look at: COCn1c(=O)on(C(=O)N(c2ccc(Cl)cc2)C(C)C)c1=O
0

Another compound to look at: CC(=O)C(C)n1c(=O)on(C(=O)N(c2ccccc2)C(C)C)c1=O (stereo not drawn)
0

src = patent US6737383B1
